endpoint_label: melting point

Consider the following illustrative entries.
compound | endpoint_label | reported_measurement
COc1cccc(C=C2N=C(c3ccccc3)OC2=O)c1 | melting point | 100 to 102 °C
COc1ccc(CN2CCCc3cc(OCc4ccccc4)c(OC)cc3C2)cc1 | melting point | 87 to 88 °C
Nc1ccccc1NC(=O)c1cc2cccc(OCC(=O)O)c2o1 | melting point | 208 to 210 °C

Query: So what's the measured melting point for this one? CCN(C(C)=O)c1ccc2c(c1)Cc1c-2[nH]c2ccccc12
Result: 232 °C

====

endpoint_label: melting point

compound | endpoint_label | reported_measurement
Cc1c(Cl)cccc1S(=O)(=O)Nc1ccc2ncccc2c1 | melting point | 228 °C

Query: So what's the measured melting point for this one? CC(=O)OC1CSC(Oc2cncc(-c3ccc(F)cc3Cl)c2)C(OC(C)=O)C1OC(C)=O (configuration not stated)
Result: 115 °C
